- Target or system: Tyrosyl-DNA phosphodiesterase 1 (Homo sapiens, UniProt Q9NUW8)
- Sequence (Q9NUW8 whole entry): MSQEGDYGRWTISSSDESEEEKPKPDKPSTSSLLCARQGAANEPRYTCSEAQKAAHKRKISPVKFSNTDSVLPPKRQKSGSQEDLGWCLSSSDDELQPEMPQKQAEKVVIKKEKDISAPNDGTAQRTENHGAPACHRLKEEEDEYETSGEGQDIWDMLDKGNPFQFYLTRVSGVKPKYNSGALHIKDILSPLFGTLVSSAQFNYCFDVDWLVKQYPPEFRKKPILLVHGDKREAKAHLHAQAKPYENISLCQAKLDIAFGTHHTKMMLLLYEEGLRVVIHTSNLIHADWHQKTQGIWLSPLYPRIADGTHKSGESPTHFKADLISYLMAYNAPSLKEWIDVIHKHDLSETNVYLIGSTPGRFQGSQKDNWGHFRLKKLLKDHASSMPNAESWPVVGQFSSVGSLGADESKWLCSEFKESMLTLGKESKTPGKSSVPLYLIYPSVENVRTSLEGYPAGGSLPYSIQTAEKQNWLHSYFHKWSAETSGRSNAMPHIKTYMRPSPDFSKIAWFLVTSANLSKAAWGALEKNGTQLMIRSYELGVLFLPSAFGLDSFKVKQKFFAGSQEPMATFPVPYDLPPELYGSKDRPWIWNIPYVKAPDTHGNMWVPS
- Test description: Inhibition of recombinant TDP1 (unknown origin) using 5'-(5,6 FAM-aac gtc agg gtc ttc c-BHQ1)-3' as substrate measured at 1 min interval by fluorimetric method

Compound: CC(=O)c1c(O)c(C)c(O)c2c1OC1=CC(=O)/C(=C(/C)Nc3cccc(Br)c3)C(=O)C12C (centres undefined)
IC50, µM: 0.75

Compound: CC(=O)c1c(O)c(C)c(O)c2c1OC1=CC(=O)/C(=C(/C)Nc3ccccc3)C(=O)[C@@]12C
IC50, µM: 1.53

Compound: CC(=O)c1c(O)c(C)c(O)c2c1OC1=CC(=O)/C(=C(/C)Nc3cccc(F)c3)C(=O)C12C (centres undefined)
IC50, µM: 1.39

Compound: CC(=O)c1c(O)c(C)c(O)c2c1OC1=CC(=O)/C(=C(/C)NCCc3ccc(O)cc3)C(=O)[C@@]12C
IC50, µM: 0.79
